Target: D(2) dopamine receptor (Homo sapiens, UniProt P14416)
Sequence (P14416 whole entry): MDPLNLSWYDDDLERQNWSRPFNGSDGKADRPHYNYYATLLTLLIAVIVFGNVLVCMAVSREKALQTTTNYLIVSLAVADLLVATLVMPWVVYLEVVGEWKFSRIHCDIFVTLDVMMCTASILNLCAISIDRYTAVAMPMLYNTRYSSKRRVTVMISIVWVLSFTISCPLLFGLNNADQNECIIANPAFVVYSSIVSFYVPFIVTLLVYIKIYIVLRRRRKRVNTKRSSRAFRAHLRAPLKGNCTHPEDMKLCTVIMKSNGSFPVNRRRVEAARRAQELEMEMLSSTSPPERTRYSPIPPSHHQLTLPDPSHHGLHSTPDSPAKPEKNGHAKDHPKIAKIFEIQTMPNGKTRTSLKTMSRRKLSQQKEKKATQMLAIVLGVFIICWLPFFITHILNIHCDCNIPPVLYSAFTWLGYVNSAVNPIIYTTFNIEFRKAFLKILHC
Experiment: Agonist activity at human D2 dopamine receptor expressed in CHO cells by [35S]GTPgammaS binding assay relative to dopamine
Format: functional, cell-based

Compound smiles	Emax, %
CCCN(CCCCCc1ccc(O)c(O)c1)[C@H]1CCc2nc(N)sc2C1	97.4
CCCN(CCCCCc1ccc(O)c(O)c1)[C@H]1CCc2c(O)cccc2C1	88.8
CCCN(CCCCCc1cc(O)ccc1O)[C@H]1CCc2nc(N)sc2C1	88
CCCN(CCCCCc1ccc(O)c(OC)c1)[C@H]1CCc2nc(N)sc2C1	96.2
CCCN(CCC/C=C/c1ccc(O)c(OC)c1)[C@H]1CCc2nc(N)sc2C1	84.3
